system: Wolbachia pipientis; experiment: Anti-Wolbachia Cell-Based Screen; format: functional; parameters: scale not given: in the data most compounds retested in dose-response had high values; details: 5 µM
Out of some 48,000 compounds screened, about 13,000 (27%) showed an effect of 50% or more. This is one part of the list.
ENDPOINT_LABEL: Percent Effect (%)
Respond numerically; units are % and should not be typed.

# count of solved cases: 3
MOLECULE: NC(=O)NCCC(=O)N1CCC(c2cc(-c3ccccc3Cl)n[nH]2)CC1
Percent Effect / %: -13.9
--
MOLECULE: Cc1cccc(CN2C(=O)CO[C@@H]3CN(C4CCOCC4)C[C@H]32)c1.O=C(O)C(F)(F)F
Percent Effect / %: 109.7
--
MOLECULE: CN(C)C(=O)CN1CCO[C@H]2CN(Cc3ccoc3)C[C@H]21
Percent Effect / %: 95.5

State its Percent Effect on Wolbachia pipientis: CCN(CC1CCCO1)C(=O)Nc1cc(OC)c(OC)cc1C (stereo not given) 1.885

Now the molecule CCN(CC1CCCO1)C(=O)CSCC(=O)Nc1ccc(C)cc1 (stereo not given) 18.9

Try this molecule too: CN(C)C(=O)CN1CCO[C@H]2CN(Cc3cccc(F)c3)C[C@H]21 99.44

Try the molecule CCN(CC1CCCO1)C(=O)Nc1cc(C(=O)OC)ccc1F (stereo not given) -7.432

Here is the next molecule: Cc1nc(C(F)(F)F)nc(N2CCC3(CC2)CC(C(=O)O)N(C)C3)c1C (stereo not given) -7.708

Same again, this time with CCN(CC1CCCO1)C(=O)Nc1cccc(N2CCOCC2)c1 (stereo not given) -20.72

Would you mind doing c1cc(CN2C[C@@H]3OCCN(CC4CCCO4)[C@@H]3C2)co1 (stereo not given in full) as well? -2.91

These data points were gathered from ChEMBL document CHEMBL3988442.
